- Measurement target: 5-hydroxytryptamine receptor 1D (Homo sapiens)
- Sequence (P28221 whole entry): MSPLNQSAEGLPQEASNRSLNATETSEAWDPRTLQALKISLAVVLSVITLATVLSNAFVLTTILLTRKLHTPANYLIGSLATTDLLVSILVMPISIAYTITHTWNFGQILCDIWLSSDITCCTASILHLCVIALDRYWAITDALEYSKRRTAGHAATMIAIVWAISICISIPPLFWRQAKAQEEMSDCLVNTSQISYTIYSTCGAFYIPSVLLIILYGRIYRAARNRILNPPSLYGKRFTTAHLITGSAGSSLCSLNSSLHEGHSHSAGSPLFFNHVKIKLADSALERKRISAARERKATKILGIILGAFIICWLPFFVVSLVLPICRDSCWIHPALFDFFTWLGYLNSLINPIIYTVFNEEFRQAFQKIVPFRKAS
- Assay text: Binding affinity to human 5HT1D receptor
Measurement name: Ki (nM)
Provide only the numeric value, understood in nM.

Query: Tell me its Ki given C[C@@H]1NC(N)=Nc2cccc(Cl)c21 as the entry.
Response: 1100

Query: Supply recorded Ki for C[C@@H]1NC(NCC(F)F)=Nc2cccc(Cl)c21 here.
Response: 1440

###

Kindly state pKi for each of the entries shown.
Would you please state pKi, meaning minus log10 of the concentration in mol/L, as a bare number?

Query: Specify the recorded pKi for C[C@H]1NC(NCC(F)F)=Nc2ccc(Cl)c(Cl)c21 , system: 5-hydroxytryptamine receptor 7 (Homo sapiens, UniProt P34969).
Sequence (P34969 whole entry): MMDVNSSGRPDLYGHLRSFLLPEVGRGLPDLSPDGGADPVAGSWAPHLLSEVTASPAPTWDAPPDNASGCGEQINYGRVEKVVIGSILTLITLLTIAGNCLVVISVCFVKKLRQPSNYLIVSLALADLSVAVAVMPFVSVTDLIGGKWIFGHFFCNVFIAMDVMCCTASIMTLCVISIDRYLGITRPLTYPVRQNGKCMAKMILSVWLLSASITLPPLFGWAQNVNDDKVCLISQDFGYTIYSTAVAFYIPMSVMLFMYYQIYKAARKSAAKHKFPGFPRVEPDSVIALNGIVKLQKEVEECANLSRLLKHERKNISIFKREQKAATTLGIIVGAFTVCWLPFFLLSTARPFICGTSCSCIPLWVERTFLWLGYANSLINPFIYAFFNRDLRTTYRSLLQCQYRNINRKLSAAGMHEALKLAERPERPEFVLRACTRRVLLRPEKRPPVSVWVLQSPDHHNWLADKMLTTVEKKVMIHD
Response: 5.77

Query: Send back 5-hydroxytryptamine receptor 7 (Homo sapiens, UniProt P34969) pKi of CC(C)Oc1cccc2c1N=C(NCC(F)F)NC2C (stereo unspecified) only.
Response: 8.38

Query: Give pKi; test system 5-hydroxytryptamine receptor 7 (Homo sapiens, UniProt P34969); molecule C[C@@H]1NC(NCC(F)F)=Nc2cccc(Cl)c21
Response: 7.61

Query: Give pKi; test system 5-hydroxytryptamine receptor 7 (Homo sapiens, UniProt P34969); molecule CC1NC(NCC(F)F)=Nc2cccc(Cl)c21 (stereo unspecified)
Response: 7.48

Query: Provide 5-hydroxytryptamine receptor 7 (Homo sapiens, UniProt P34969) pKi reading for CC1NC(NCC(F)F)=Nc2c(Cl)ccc(Cl)c21 (stereo unspecified) .
Response: 6.44

Query: Please look at CC1NC(NCC(F)F)=Nc2ccc(Cl)c(Cl)c21 (stereo unspecified) and tell me its recorded pKi on 5-hydroxytryptamine receptor 7 (Homo sapiens, UniProt P34969).
Response: 7.63

###

- Measurement target: UniProtKB P47898
- Sequence (P47898 whole entry): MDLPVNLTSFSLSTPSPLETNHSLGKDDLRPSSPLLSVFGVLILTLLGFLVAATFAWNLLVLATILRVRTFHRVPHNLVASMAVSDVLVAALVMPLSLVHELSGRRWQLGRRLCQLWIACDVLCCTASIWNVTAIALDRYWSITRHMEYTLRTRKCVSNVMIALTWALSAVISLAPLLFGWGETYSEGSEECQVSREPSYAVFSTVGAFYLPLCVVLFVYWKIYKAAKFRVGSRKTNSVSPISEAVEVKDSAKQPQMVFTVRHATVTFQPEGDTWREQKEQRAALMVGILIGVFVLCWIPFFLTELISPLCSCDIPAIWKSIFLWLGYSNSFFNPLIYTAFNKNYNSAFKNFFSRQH
- Assay text: Binding affinity to human 5HT5A receptor
- Particulars: read-out: Ki
Assignment: determine reported Ki for the given molecules.
Give your result in nM as a bare value.

Query: Answer with the recorded Ki of C[C@H]1NC(N)=Nc2cccc(Cl)c21 only.
Response: 415

Query: Report measured Ki; entry is CC1NC(NCCF)=Nc2ccccc21 (centres undefined)
Response: 397

Query: Specify measured Ki for CC1NC(NCC2COCCO2)=Nc2ccccc21 (centres undefined) .
Response: 96

Query: Write down Ki measured for item C[C@@H]1NC(NCC(F)F)=Nc2ccc(Cl)c(Cl)c21
Response: 1.8

Query: Consider the molecule CCCOCCNC1=Nc2ccccc2C(C)N1 (centres undefined) . State its measured Ki.
Response: 241

Query: Determine its reported Ki: CC(C)Oc1cccc2c1N=C(NCC(F)F)NC2C (centres undefined)
Response: 22.2

Query: # return recorded Ki for input CC1NC(NCC(F)F)=Nc2c(Cl)ccc(Cl)c21 (centres undefined)
Response: 33.4

Query: Indicate its recorded Ki; the molecule in question is COc1c(Cl)ccc2c1C(C)NC(NCC(F)F)=N2 (centres undefined)
Response: 22.2

Query: Output Ki of CCNC1=Nc2ccccc2C(C)N1 (centres undefined)
Response: 196

Query: For the molecule CC1NC(NCC2COc3ccccc3O2)=Nc2ccccc21 (centres undefined) , give its measured Ki value.
Response: 37

Query: Check the records and state Ki for C[C@@H]1NC(NCC(F)F)=Nc2cccc(Cl)c21
Response: 6.8

Query: Give Ki for the following molecule: CCOCCCNC1=Nc2ccccc2C(C)N1 (centres undefined)
Response: 176

Query: Please indicate Ki recorded for CNC1=Nc2ccccc2C(C)N1 (centres undefined)
Response: 103

Query: Quick one: give measured Ki for CC1NC(NCC(F)F)=Nc2ccccc21 (centres undefined)
Response: 87

Query: Given C[C@@H]1NC(N)=Nc2cccc(Cl)c21 , respond with its Ki.
Response: 1.6

Query: Give a short answer stating reported Ki for CC1NC(NC[C@H]2CCCO2)=Nc2ccccc21 (some centres undefined) .
Response: 163

Query: Please look at this molecule and report its Ki: CCCCNC1=Nc2ccccc2C(C)N1 (centres undefined)
Response: 189

Query: Identify the reported Ki for the following entry. C[C@H]1NC(NCC(F)F)=Nc2cccc(Cl)c21
Response: 1470

Query: Return value of Ki for input CC1NC(NC2CCCCN(C)C2=O)=Nc2ccccc21 (centres undefined) , no commentary.
Response: 279

Query: Identify Ki associated with the molecule CC1NC(NC2CCC2)=Nc2ccccc21 (centres undefined)
Response: 122

Query: Assign Ki to the following record: CCCNC1=Nc2ccccc2C(C)N1 (centres undefined)
Response: 153

Query: Using the record for CC1NC(NCC(F)(F)F)=Nc2ccccc21 (centres undefined) , state its measured Ki.
Response: 488

Query: Tell me its Ki given C[C@H]1NC(NCC(F)F)=Nc2ccc(Cl)c(Cl)c21 as the entry.
Response: 504

Query: Identify Ki associated with the molecule CC1NC(NCCC2CCCCC2)=Nc2ccccc21 (centres undefined)
Response: 124
